B1: Laforin (Homo sapiens), O95278 (parent)
chain: MRFRFGVVVPPAVAGARPELLVVGSRPELGRWEPRGAVRLRPAGTAAGDGALALQEPGLWLGEVELAAEEAAQDGAEPGRVDTFWYKFLKREPGGELSWEGNGPHHDRCCTYNENNLVDGVYCLPIGHWIEATGHTNEMKHTTDFYFNIAGHQAMHYSRILPNIWLGSCPRQVEHVTIKLKHELGITAVMNFQTEWDIVQNSSGCNRYPEPMTPDTMIKLYREEGLAYIWMPTPDMSTEGRVQMLPQAVCLLHALLEKGHIVYVHCNAGVGRSTAAVCGWLQYVMGWNLRKVQYFLMAKRPAVYIDEEALARAQEDFFQKFGKVRSSVCSL
partner: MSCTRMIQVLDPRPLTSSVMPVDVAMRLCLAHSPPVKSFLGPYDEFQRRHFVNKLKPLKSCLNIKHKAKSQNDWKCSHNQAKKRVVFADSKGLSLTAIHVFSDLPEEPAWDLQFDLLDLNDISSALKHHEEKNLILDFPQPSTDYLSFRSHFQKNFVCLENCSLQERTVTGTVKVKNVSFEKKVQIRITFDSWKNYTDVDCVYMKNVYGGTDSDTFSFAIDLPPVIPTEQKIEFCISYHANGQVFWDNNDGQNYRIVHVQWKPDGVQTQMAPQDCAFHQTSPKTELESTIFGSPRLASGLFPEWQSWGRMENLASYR

variants of: B1; conditions: with ppr3c_human PPP1R3C
assay endpoint: effect of a mutation on the interaction

# annotated cases, reported effect of a mutation on the interaction shown
1. P301L = disrupting interaction
2. F84L = disrupting interaction
3. T194I = disrupting interaction
4. W32G = disrupting interaction

Return reported effect of a mutation on the interaction values for all items listed beneath this line.
1. Y294N
2. G240S
3. G279S
4. Q293L
5. R108C

disrupting interaction
decreasing interaction
decreasing interaction
disrupting interaction
disrupting interaction
